Biological target: T1, Human CD3eg linker (human)
T1 construct: Single chain: CD3 epsilon and gamma subunits joined by a 29-mer linker, Flag-tag at the C-terminus; also called recombinant human CD3
T1 chain: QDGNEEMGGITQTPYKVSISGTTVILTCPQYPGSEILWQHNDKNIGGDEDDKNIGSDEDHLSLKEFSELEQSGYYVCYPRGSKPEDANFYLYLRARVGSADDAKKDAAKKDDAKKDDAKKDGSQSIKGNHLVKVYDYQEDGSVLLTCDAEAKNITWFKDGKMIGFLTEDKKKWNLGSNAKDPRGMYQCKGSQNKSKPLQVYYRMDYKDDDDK
Experiment: SPR Biacore T200, 25 C, Ab captured on anti-human Fc, antigen as analyte;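 also: Anti-Fc amine-coupled to a CM4 chip, recombinant human CD3 flowed over in 20 mM ACES buffer pH 7.4 with 150 mM NaCl and 0.05% Tween 20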
Recorded pKd, one value per entry.
In simple prose, pKd is minus the logarithm base ten of a concentration in moles per litre.

H2594L0581 (antibody, V domains shown, Dual-Ig, IgG; also called H2594L581; dBBDu183H2594/dBBDu072L0581) VH: QVQLVESGGGLVQPGRSLRLSCAASGFKFSNVWFHWVRQAPGKGLEWVAQIKDYYNAYAGYYHPSVKGRFTISRDDSKNSIYLQMNSLKTEDTAVYYCHYVHYAAASQLLPAEGVDAWGQGTTVTVSS VL: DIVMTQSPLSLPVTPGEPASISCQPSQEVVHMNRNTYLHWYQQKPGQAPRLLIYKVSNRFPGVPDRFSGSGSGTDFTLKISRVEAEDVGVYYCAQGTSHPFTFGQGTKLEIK ... 6.23
H183/L072 (antibody, V domains shown, Dual-Fab antibody (Dual-Ig), bivalent IgG; also called parental Dual-Fab H183L072; dBBDu183H/dBBDu072L) VH: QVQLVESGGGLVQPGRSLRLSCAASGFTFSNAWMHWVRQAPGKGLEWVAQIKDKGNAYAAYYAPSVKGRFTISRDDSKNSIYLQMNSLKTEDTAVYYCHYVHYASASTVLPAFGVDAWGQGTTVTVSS VL: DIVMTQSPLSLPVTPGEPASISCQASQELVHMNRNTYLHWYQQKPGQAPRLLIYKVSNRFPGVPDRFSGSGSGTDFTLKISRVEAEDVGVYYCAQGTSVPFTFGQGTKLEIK ... 6.47

Let us examine a further case.
Exam item: // pKd lookup, key: H1550L0918 (antibody, V domains shown, Dual-Ig, IgG; also called H1550L918; dBBDu183H1550/dBBDu072L0918) VH: QVQLVESGGGLVQPGRSLRLSCAASGFKFSNVWMHWVRQAPGKGLEWVAQIKDKYNAYAAYYAPSVKGRFTISRDDSKNSIYLQMNSLKTEDTAVYYCHYIHYASASTLLPAFGVDAWGQGTTVTVSS VL: DIVMTQSPLSLPVTPGEPASISCQPSQEVVHMNNVVYLHWYQQKPGQAPRLLIYKVSNRFPGVPDRFSGSGSGTDFTLKISRVEAEDVGVYYCAQGTSHPFTFGQGTKLEIK
Marked response: 7.36
